Test: Mean residence time (0 to t) in C57BL/6 mouse at 1 mg/kg, iv
Type: ADME, organism-based
Parameters: dose 1 mg/kg, route intravenous
Settings: in vivo
value-type: MRT last
Give the value; after it, write the unit.

[Q] # get_value(readout='MRT last', item= CC(C)CC(=O)Nc1nnc2n1CCS2 )
[A] 6 min

----------
Test: Inhibition of Wnt signaling in human HEK293 cells by STF luciferase reporter gene assay
Response field label takes fulfilled when IC50 is strictly below 7 µM and not fulfilled in all other cases.

Use these answered entries as a reference point.
[
  {
    "mol-smiles": "O=C(CCC1CCCCCC1)Nc1nnc2n1CCS2",
    "cat": "fulfilled"
  },
  {
    "mol-smiles": "O=C(Nc1nnc2n1CCS2)C1CCCCC1",
    "cat": "fulfilled"
  },
  {
    "mol-smiles": "CC(C)(C)c1ccc(C(=O)Nc2nnc3n2CCCS3)cc1",
    "cat": "not fulfilled"
  },
  {
    "mol-smiles": "O=C(CCn1cncn1)Nc1nnc2n1CCS2",
    "cat": "not fulfilled"
  }
]

[Q] Confirm or reject: IC50 of Oc1nc(-c2ccc(C(F)(F)F)cc2)nc2c1CSCC2 lies strictly below 7 µM
[A] fulfilled

[Q] Please do the same for O=C(Nc1nnc2n1CCS2)C1CCCC1 as well.
[A] not fulfilled

[Q] Please do the same for O=C(CCC1CCCC1)Nc1nnc2n1CCS2 as well.
[A] fulfilled

[Q] Please do the same for O=C(CCc1cccnc1)Nc1nnc2n1CCS2 as well.
[A] fulfilled

[Q] Please do the same for O=C(CCC1CCCCC1)Nc1nnc2n1CCS2 as well.
[A] fulfilled

----------
Assay: Plasma clearance in iv dosed Sprague-Dawley rat
Assay type: ADME, organism-based
value-type: clearance
Give the value; after it, write the unit.

[Q] # get_value(readout='clearance', item= O=C(CCc1c(Cl)cccc1Cl)Nc1nnc2n1CCS2 )
[A] 45.6 mL/min/kg

----------
solubility listing for selected compounds.
Assay: Solubility of the compound at pH 6.8
Type: physicochemical
Conditions: buffer
API: value field is a number in µM; no unit string.

See these solved cases before continuing.
[
  {
    "mol-smiles": "O=C(CCC1CCCC1)Nc1nnc2n1CCS2",
    "experimental-value": 630
  },
  {
    "mol-smiles": "O=C(CCc1c(Cl)cccc1Cl)Nc1nnc2n1CCS2",
    "experimental-value": 16
  },
  {
    "mol-smiles": "O=C(CCC1CCCCC1)Nc1nnc2n1CCS2",
    "experimental-value": 520
  }
]

[Q] # get_value(readout='solubility', item= O=C(CCc1ccccc1Cl)Nc1nnc2n1CCS2 )
[A] 32

----------
Biological target: Poly [ADP-ribose] polymerase tankyrase-1 (Homo sapiens, UniProt O95271)
Sequence (O95271 whole entry): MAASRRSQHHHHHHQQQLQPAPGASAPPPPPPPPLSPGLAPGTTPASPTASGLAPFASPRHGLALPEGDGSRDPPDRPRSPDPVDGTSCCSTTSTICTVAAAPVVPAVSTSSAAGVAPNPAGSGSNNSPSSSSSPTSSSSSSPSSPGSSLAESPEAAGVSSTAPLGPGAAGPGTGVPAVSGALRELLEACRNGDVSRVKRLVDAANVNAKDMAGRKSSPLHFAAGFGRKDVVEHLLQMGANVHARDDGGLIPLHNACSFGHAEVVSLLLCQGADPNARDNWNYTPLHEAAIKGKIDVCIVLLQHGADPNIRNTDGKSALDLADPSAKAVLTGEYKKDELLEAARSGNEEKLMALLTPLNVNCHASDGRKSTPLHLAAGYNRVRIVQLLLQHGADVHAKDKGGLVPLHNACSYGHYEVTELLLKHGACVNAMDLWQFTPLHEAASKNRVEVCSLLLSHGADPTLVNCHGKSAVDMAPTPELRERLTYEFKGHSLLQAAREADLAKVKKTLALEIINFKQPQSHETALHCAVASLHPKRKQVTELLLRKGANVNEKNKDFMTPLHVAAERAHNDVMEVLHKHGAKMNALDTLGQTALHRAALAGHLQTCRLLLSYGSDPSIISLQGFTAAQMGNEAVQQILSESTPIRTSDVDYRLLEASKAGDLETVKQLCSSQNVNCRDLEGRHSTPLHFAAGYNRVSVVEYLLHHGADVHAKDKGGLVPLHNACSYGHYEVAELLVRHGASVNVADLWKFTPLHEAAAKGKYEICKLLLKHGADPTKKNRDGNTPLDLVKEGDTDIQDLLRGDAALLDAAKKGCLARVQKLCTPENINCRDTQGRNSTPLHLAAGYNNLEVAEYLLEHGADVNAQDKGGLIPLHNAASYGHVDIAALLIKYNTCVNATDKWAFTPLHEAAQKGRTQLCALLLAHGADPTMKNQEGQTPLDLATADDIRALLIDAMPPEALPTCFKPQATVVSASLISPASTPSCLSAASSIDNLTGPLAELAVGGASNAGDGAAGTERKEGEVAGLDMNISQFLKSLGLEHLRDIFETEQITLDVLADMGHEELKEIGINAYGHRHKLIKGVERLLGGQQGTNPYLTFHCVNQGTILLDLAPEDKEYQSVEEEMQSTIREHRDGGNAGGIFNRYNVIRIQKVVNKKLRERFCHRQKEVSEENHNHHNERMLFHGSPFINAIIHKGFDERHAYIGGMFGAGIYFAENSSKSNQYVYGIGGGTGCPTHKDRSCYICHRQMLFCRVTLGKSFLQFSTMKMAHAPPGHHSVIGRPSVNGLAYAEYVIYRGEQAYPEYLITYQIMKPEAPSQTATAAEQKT
value-type: IC50
Give the value; after it, write the unit.

[Q] # get_value(readout='IC50', item= O=C(CCc1ccc(Cl)cc1Cl)Nc1nnc2n1CCS2 )
[A] 24 nM

----------
Assay: AUC (last) in C57BL/6 mouse at 1 mg/kg, iv
Format: ADME, organism-based
Design: time 0 - last, dose 1 mg/kg, route intravenous
Conditions: plasma
value-type: AUC(0-t) (µM·h)
API: value field is a number in µM·h; no unit string.

[Q] # get_value(readout='AUC(0-t)', item= CC(C)CC(=O)Nc1nnc2n1CCS2 )
[A] 4.73
